molecular target: UniProt:P33033; experiment: Antagonist Schild analysis against agonist MTII at mMC3R; format: cell-based
Sequence (P33033 whole entry): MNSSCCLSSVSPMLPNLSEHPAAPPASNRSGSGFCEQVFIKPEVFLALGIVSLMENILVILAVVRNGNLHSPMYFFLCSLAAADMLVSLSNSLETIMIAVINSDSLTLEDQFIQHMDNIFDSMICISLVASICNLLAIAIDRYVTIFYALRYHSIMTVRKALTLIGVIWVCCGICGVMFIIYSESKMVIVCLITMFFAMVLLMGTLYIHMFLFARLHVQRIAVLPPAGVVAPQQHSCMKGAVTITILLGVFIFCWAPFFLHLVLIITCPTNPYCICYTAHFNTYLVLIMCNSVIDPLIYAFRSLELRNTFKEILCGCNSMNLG
Square brackets hold non-standard residues; d marks the D form. Peptide text beside a SMILES is read from it. Bip = N[C@@H](Cc1ccc(-c2ccccc2)cc1)C(=O)O; dBip = N[C@H](Cc1ccc(-c2ccccc2)cc1)C(=O)O; dPhe(4-I) = N[C@H](Cc1ccc(I)cc1)C(=O)O; Bta = N[C@@H](Cc1csc2ccccc12)C(=O)O

[
  {
    "MOLECULE": "CC(=O)N[C@@H](Cc1ccc(-c2ccccc2)cc1)C(=O)N[C@H](Cc1ccc(I)cc1)C(=O)N[C@@H](CCCNC(=N)N)C(=O)N[C@@H](Cc1c[nH]c2ccccc12)C(N)=O [Peptide 17, Ac-Bip-(pI)DPhe-Arg-Trp-NH2] (Ac-[Bip][dPhe(4-I)]RW-NH2)",
    "Kb (nM)": 631
  },
  {
    "MOLECULE": "CC(=O)N[C@@H](Cc1c[nH]cn1)C(=O)N[C@H](Cc1ccc(-c2ccccc2)cc1)C(=O)N[C@@H](CCCNC(=N)N)C(=O)N[C@H](Cc1ccc(-c2ccccc2)cc1)C(N)=O [Peptide 35, Ac-His-DBip-Arg-DBip-NH2] (Ac-H[dBip]R[dBip]-NH2)",
    "Kb (nM)": 200
  },
  {
    "MOLECULE": "CC(=O)N[C@@H](Cc1c[nH]cn1)C(=O)N[C@H](Cc1ccc(-c2ccccc2)cc1)C(=O)N[C@@H](CCCNC(=N)N)C(=O)N[C@@H](Cc1csc2ccccc12)C(N)=O [Peptide 34, Ac-His-DBip-Arg-3Bal-NH2] (Ac-H[dBip]R[Bta]-NH2)",
    "Kb (nM)": 316
  }
]

----------
target: mMC4R (Mus musculus); assay: CRE/β-galactosidase reporter gene bioassay, agonist activity at mMC4R; assay type: cell-based
Sequence (P56450 whole entry): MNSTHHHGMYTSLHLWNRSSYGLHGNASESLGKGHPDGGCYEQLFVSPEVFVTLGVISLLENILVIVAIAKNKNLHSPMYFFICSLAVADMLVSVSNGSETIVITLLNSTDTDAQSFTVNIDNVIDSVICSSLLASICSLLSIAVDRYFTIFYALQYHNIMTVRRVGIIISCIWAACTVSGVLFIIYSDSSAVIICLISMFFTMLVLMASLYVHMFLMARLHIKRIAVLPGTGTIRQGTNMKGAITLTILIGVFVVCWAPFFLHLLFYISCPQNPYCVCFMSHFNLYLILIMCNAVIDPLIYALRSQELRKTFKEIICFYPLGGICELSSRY
Square brackets hold non-standard residues; d marks the D form. Peptide text beside a SMILES is read from it. * marks the point of attachment. dBip = N[C@H](Cc1ccc(-c2ccccc2)cc1)C(=O)O; dPhe(4-I) = N[C@H](Cc1ccc(I)cc1)C(=O)O; 2Nal = N[C@@H](Cc1ccc2ccccc2c1)C(=O)O; d1Nal = N[C@H](Cc1cccc2ccccc12)C(=O)O; Bta = N[C@@H](Cc1csc2ccccc12)C(=O)O; 4Pal = N[C@@H](Cc1ccncc1)C(=O)O; Tic = O=C(O)[C@@H]1Cc2ccccc2CN1; 2Thi = N[C@@H](Cc1cccs1)C(=O)O; Octanoyl = CCCCCCCC(=O)*
hey, just use Y if measured EC50 is less than 2000 nM, otherwise N

[
  {
    "COMPOUND": "CC(=O)N[C@@H](Cc1ccncc1)C(=O)N[C@H](Cc1ccc(-c2ccccc2)cc1)C(=O)N[C@@H](CCCNC(=N)N)C(=O)N[C@@H](Cc1c[nH]c2ccccc12)C(N)=O [Peptide 22, Ac-4PAL-DBip-Arg-Trp-NH2] (Ac-[4Pal][dBip]RW-NH2)",
    "LABEL": "Y"
  },
  {
    "COMPOUND": "CC(=O)N[C@@H](Cc1c[nH]c2ccccc12)C(=O)N[C@H](Cc1cccc2ccccc12)C(=O)N[C@@H](CCCNC(=N)N)C(=O)N[C@@H](Cc1c[nH]c2ccccc12)C(N)=O [Peptide 19, Ac-Trp-DNal(1’)-Arg-Trp-NH2] (Ac-W[d1Nal]RW-NH2)",
    "LABEL": "N"
  },
  {
    "COMPOUND": "CC(=O)N[C@@H](Cc1c[nH]cn1)C(=O)N[C@H](Cc1ccc(I)cc1)C(=O)N[C@@H](CCCNC(=N)N)C(=O)N1Cc2ccccc2C[C@H]1C(N)=O [Peptide 31, Ac-His-(pI)DPhe-Arg-Tic-NH2] (Ac-H[dPhe(4-I)]R[Tic]-NH2)",
    "LABEL": "Y"
  },
  {
    "COMPOUND": "CCCCCCCC(=O)N[C@@H](Cc1c[nH]cn1)C(=O)N[C@H](Cc1ccccc1)C(=O)N[C@@H](CCCNC(=N)N)C(=O)N[C@@H](Cc1ccccc1)C(N)=O [Peptide 5, Octanoyl-His-DPhe-Arg-Phe-NH2] (Octanoyl-H[dF]RF-NH2)",
    "LABEL": "Y"
  },
  {
    "COMPOUND": "CC(=O)N[C@@H](Cc1cccs1)C(=O)N[C@H](Cc1ccccc1)C(=O)N[C@@H](CCCNC(=N)N)C(=O)N[C@@H](Cc1ccc2ccccc2c1)C(N)=O [Peptide 28, Ac-2Thi-DPhe-Arg-Nal(2’)-NH2] (Ac-[2Thi][dF]R[2Nal]-NH2)",
    "LABEL": "Y"
  },
  {
    "COMPOUND": "CCCCCCCC(=O)N[C@@H](Cc1c[nH]cn1)C(=O)N[C@H](Cc1ccccc1)C(=O)N[C@@H](CCCNC(=N)N)C(=O)N1Cc2ccccc2C[C@H]1C(N)=O [Peptide 4, Octanoyl-His-DPhe-Arg-Tic-NH2] (Octanoyl-H[dF]R[Tic]-NH2)",
    "LABEL": "Y"
  },
  {
    "COMPOUND": "CC(=O)N[C@@H](Cc1c[nH]c2ccccc12)C(=O)N[C@H](Cc1ccccc1)C(=O)N[C@@H](CCCNC(=N)N)C(=O)N[C@@H](Cc1csc2ccccc12)C(N)=O [Peptide 25, Ac-Trp-DPhe-Arg-3Bal-NH2] (Ac-W[dF]R[Bta]-NH2)",
    "LABEL": "N"
  },
  {
    "COMPOUND": "CC(=O)N[C@@H](Cc1ccccc1)C(=O)N[C@H](Cc1cccc2ccccc12)C(=O)N[C@@H](CCCNC(=N)N)C(=O)N[C@@H](Cc1c[nH]c2ccccc12)C(N)=O [Peptide 21, Ac-Phe-DNal(1’)-Arg-Trp-NH2] (Ac-F[d1Nal]RW-NH2)",
    "LABEL": "N"
  }
]

----------
target: mMC5R (Mus musculus, UniProt P41149); assay: CRE/β-galactosidase reporter gene bioassay, agonist activity at mMC5R; assay type: cell-based
Sequence (P41149 whole entry): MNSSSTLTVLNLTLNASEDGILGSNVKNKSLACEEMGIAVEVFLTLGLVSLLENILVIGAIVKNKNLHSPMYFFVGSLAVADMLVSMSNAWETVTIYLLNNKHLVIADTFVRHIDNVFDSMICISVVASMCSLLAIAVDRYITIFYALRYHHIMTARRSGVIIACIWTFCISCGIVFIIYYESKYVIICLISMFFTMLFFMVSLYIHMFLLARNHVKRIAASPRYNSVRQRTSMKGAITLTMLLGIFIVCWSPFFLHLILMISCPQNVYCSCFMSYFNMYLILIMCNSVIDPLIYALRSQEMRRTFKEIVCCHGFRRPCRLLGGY
Square brackets hold non-standard residues; d marks the D form. Peptide text beside a SMILES is read from it. * marks the point of attachment. Bip = N[C@@H](Cc1ccc(-c2ccccc2)cc1)C(=O)O; dBip = N[C@H](Cc1ccc(-c2ccccc2)cc1)C(=O)O; dPhe(4-I) = N[C@H](Cc1ccc(I)cc1)C(=O)O; d2Nal = N[C@H](Cc1ccc2ccccc2c1)C(=O)O; Bta = N[C@@H](Cc1csc2ccccc12)C(=O)O; 3Pal = N[C@@H](Cc1cccnc1)C(=O)O; Octanoyl = CCCCCCCC(=O)*
hey, just use true if measured EC50 is less than 60 nM, otherwise false

[
  {
    "COMPOUND": "CC(=O)N[C@@H](Cc1c[nH]cn1)C(=O)N[C@H](Cc1ccc(I)cc1)C(=O)N[C@@H](CCCNC(=N)N)C(=O)N[C@@H](Cc1csc2ccccc12)C(N)=O [Peptide 30, Ac-His-(pI)DPhe-Arg-3Bal-NH2] (Ac-H[dPhe(4-I)]R[Bta]-NH2)",
    "LABEL": "true"
  },
  {
    "COMPOUND": "CCCCCCCC(=O)N[C@@H](Cc1cnc[nH]1)C(=O)N[C@H](Cc1ccccc1)C(=O)N[C@@H](CCCNC(=N)N)C(=O)N[C@@H](Cc1ccc(-c2ccccc2)cc1)C(N)=O [Peptide 2, Octanoyl-His-DPhe-Arg-Bip-NH2] (Octanoyl-H[dF]R[Bip]-NH2)",
    "LABEL": "false"
  },
  {
    "COMPOUND": "CC(=O)N[C@@H](Cc1c[nH]c2ccccc12)C(=O)N[C@H](Cc1ccccc1)C(=O)N[C@@H](CCCNC(=N)N)C(=O)N[C@@H](Cc1csc2ccccc12)C(N)=O [Peptide 25, Ac-Trp-DPhe-Arg-3Bal-NH2] (Ac-W[dF]R[Bta]-NH2)",
    "LABEL": "false"
  },
  {
    "COMPOUND": "CC(=O)N[C@@H](Cc1cccnc1)C(=O)N[C@H](Cc1ccc(I)cc1)C(=O)N[C@@H](CCCNC(=N)N)C(=O)N[C@@H](Cc1c[nH]c2ccccc12)C(N)=O [Peptide 12, Ac-3PAL-(pI)DPhe-Arg-Trp-NH2] (Ac-[3Pal][dPhe(4-I)]RW-NH2)",
    "LABEL": "false"
  },
  {
    "COMPOUND": "CCCCCCCC(=O)N[C@H](Cc1c[nH]cn1)C(=O)N[C@H](Cc1ccccc1)C(=O)N[C@@H](CCCNC(=N)N)C(=O)N[C@@H](Cc1c[nH]c2ccccc12)C(N)=O [Peptide 9, Octanoyl-DHis-DPhe-Arg-Trp-NH2]",
    "LABEL": "false"
  },
  {
    "COMPOUND": "CC(=O)N[C@@H](Cc1c[nH]c2ccccc12)C(=O)N[C@H](Cc1ccccc1)C(=O)N[C@@H](CCCNC(=N)N)C(=O)N[C@H](Cc1ccc2ccccc2c1)C(N)=O [Peptide 26, Ac-Trp-DPhe-Arg-DNal(2’)-NH2] (Ac-W[dF]R[d2Nal]-NH2)",
    "LABEL": "false"
  },
  {
    "COMPOUND": "CC(=O)N[C@@H](Cc1cnc[nH]1)C(=O)N[C@H](Cc1ccccc1)C(=O)N[C@@H](CCCN=C(N)N)C(=O)N[C@@H](Cc1c[nH]c2ccccc12)C(N)=O [Peptide 1, Ac-His-DPhe-Arg-Trp-NH2, reference compound]",
    "LABEL": "true"
  },
  {
    "COMPOUND": "CCCCCCCC(=O)N[C@@H](Cc1c[nH]cn1)C(=O)N[C@H](Cc1ccccc1)C(=O)N[C@@H](CCCNC(=N)N)C(=O)N[C@@H](Cc1ccccc1)C(N)=O [Peptide 5, Octanoyl-His-DPhe-Arg-Phe-NH2] (Octanoyl-H[dF]RF-NH2)",
    "LABEL": "true"
  },
  {
    "COMPOUND": "CCCCCCCC(=O)N[C@@H](Cc1c[nH]cn1)C(=O)N[C@H](Cc1ccccc1)C(=O)N[C@@H](CCCNC(=N)N)C(=O)N[C@@H](Cc1csc2ccccc12)C(N)=O [Peptide 3, Octanoyl-His-DPhe-Arg-3Bal-NH2] (Octanoyl-H[dF]R[Bta]-NH2)",
    "LABEL": "true"
  },
  {
    "COMPOUND": "CC(=O)N[C@@H](Cc1c[nH]c2ccccc12)C(=O)N[C@H](Cc1ccc(-c2ccccc2)cc1)C(=O)N[C@@H](CCCNC(=N)N)C(=O)N[C@@H](Cc1c[nH]c2ccccc12)C(N)=O [Peptide 18, Ac-Trp-DBip-Arg-Trp-NH2] (Ac-W[dBip]RW-NH2)",
    "LABEL": "false"
  }
]

Data origin: paper PMC6261661
